- System: UO-31 renal
- Experiment: NCI-60 one-dose screen, 48 h
- Protocol Conditions: 10 µM unless noted
Compounds without any hit were thinned out: in the full panel of roughly 83,000, 20% have a hit. The source made the active and inactive calls. The calls were made as follows: active = growth percent below 10; inactive = the rest.
Output constraint: value belongs to Yes for active, No for inactive

{"Compound": "CCCCCCCCCCCCCCCCOC(=O)c1c(C)[nH]c(/C=C2\\N=C(c3ccc[nH]3)C=C2OC)c1C", "Label Class": "No"}

Task: Hi team, can someone confirm the assay call for O=C(/C=C\c1ccco1)/C=C/c1ccco1 ?
Output: No

Task: Hi team, can someone confirm the assay call for NC(=O)c1c(NC(=O)c2ccc(Cl)cc2)sc2c1CCC(=O)C2 ?
Output: No

Task: Hi team, can someone confirm the assay call for O=C1NC(=O)c2c1c1c3ccccc3[nH]c1c1oc3cc(Br)ccc3c21 ?
Output: No

Task: Hi team, can someone confirm the assay call for CC1O[C@@H]2C[C@@](O)([C@H]1O)n1c3ccccc3c3c4c(c5c6ccccc6n2c5c31)C(=O)NC4=O (stereo not given in full) ?
Output: No

Task: Hi team, can someone confirm the assay call for CN(C)c1ccc(/C=C/C(=O)c2ccc(Nc3nc(Nc4ccc(F)cc4)nc(Nc4ccc(Cl)cc4)n3)cc2)cc1 ?
Output: No

Task: Hi team, can someone confirm the assay call for CS(=O)(=O)Cc1cnc(C2OCCO2)s1 ?
Output: No
